System: T-47D breast
experimentNotes: NCI tumour cell line growth inhibition, 48 h
Below, each of the compounds is paired with its reported TGI value.

compound	TGI
O=CC(O)C(O)C(O)C(O)COP(=O)(O)Cc1ccccc1 (stereo unspecified)	> 10 µM
C=C1CCC2C(C)(C)CCC[C@]2(C)[C@H]1CO (stereo partly specified)	> 100 µM
COc1ccc(OC)c(/C=C(/C)[N+](=O)[O-])c1	2.87 µM
Cn1c2ccccc2c2c(=O)[nH]c(=O)[nH]c21	> 100 µM
COCOc1c(C(O[Si](C)(C)C(C)(C)C)c2cnc(Sc3ccccc3)n2C)ccc(OC)c1OC (stereo unspecified)	> 100 µM
COc1ccc(/C=C2\N=C(c3ccccc3)N(N=C3NC(=O)CC(=O)N3)C2=O)cc1	> 100 µM
